- System: NCI-H23
- Protocol summary: NCI tumour cell line growth inhibition, 48 h
Activity calls are given as the source filed them. Cut-off read from the data, not from the text of the source: active = GI50 up to about 1.1 µM and inactive = higher.
Kindly supply the reported GI50 values for the records listed here.

Briefly, GI50 measured for CN(N=O)c1ccc(/C=C/c2ccnc3ccccc23)cc1 : > 100 µM (inactive)

Briefly, GI50 measured for CCCCCCCC(=O)N/N=C/c1ccc(Sc2nccn2C)c([N+](=O)[O-])c1 : 18.2 µM (inactive)

Briefly, GI50 measured for CCOC(=O)C(/C(=N/NC(=O)OC)C(=O)Nc1ccc(C(C)=O)cc1)c1cnc2ccccc2n1 (stereo unspecified) : > 100 µM (inactive)

Briefly, GI50 measured for CCOC(=O)Cn1c(=O)n(C)c(=O)c2c1ncn2Cc1ccccc1 : > 100 µM (inactive)

Briefly, GI50 measured for O=c1c(=O)c2c(Br)sc(Br)c2c1=O : 20.3 µM (inactive)

Briefly, GI50 measured for CN(C)CCCn1nc(N)c2nc3cc(Cl)ccc3nc21 : 81.8 µM (inactive)
